Listed next: entries and their corresponding pIC50.
- EXPERIMENTAL_TARGET: PIKfyve (PIKFYVE-NanoLuc fusion in HEK293 cells) (Homo sapiens)
- Construct: containing a full-length PIKfyve according to manufacturer's specifications; host or cells: HEK293
- Sequence (Q9Y2I7 whole entry, the tested form may be a part): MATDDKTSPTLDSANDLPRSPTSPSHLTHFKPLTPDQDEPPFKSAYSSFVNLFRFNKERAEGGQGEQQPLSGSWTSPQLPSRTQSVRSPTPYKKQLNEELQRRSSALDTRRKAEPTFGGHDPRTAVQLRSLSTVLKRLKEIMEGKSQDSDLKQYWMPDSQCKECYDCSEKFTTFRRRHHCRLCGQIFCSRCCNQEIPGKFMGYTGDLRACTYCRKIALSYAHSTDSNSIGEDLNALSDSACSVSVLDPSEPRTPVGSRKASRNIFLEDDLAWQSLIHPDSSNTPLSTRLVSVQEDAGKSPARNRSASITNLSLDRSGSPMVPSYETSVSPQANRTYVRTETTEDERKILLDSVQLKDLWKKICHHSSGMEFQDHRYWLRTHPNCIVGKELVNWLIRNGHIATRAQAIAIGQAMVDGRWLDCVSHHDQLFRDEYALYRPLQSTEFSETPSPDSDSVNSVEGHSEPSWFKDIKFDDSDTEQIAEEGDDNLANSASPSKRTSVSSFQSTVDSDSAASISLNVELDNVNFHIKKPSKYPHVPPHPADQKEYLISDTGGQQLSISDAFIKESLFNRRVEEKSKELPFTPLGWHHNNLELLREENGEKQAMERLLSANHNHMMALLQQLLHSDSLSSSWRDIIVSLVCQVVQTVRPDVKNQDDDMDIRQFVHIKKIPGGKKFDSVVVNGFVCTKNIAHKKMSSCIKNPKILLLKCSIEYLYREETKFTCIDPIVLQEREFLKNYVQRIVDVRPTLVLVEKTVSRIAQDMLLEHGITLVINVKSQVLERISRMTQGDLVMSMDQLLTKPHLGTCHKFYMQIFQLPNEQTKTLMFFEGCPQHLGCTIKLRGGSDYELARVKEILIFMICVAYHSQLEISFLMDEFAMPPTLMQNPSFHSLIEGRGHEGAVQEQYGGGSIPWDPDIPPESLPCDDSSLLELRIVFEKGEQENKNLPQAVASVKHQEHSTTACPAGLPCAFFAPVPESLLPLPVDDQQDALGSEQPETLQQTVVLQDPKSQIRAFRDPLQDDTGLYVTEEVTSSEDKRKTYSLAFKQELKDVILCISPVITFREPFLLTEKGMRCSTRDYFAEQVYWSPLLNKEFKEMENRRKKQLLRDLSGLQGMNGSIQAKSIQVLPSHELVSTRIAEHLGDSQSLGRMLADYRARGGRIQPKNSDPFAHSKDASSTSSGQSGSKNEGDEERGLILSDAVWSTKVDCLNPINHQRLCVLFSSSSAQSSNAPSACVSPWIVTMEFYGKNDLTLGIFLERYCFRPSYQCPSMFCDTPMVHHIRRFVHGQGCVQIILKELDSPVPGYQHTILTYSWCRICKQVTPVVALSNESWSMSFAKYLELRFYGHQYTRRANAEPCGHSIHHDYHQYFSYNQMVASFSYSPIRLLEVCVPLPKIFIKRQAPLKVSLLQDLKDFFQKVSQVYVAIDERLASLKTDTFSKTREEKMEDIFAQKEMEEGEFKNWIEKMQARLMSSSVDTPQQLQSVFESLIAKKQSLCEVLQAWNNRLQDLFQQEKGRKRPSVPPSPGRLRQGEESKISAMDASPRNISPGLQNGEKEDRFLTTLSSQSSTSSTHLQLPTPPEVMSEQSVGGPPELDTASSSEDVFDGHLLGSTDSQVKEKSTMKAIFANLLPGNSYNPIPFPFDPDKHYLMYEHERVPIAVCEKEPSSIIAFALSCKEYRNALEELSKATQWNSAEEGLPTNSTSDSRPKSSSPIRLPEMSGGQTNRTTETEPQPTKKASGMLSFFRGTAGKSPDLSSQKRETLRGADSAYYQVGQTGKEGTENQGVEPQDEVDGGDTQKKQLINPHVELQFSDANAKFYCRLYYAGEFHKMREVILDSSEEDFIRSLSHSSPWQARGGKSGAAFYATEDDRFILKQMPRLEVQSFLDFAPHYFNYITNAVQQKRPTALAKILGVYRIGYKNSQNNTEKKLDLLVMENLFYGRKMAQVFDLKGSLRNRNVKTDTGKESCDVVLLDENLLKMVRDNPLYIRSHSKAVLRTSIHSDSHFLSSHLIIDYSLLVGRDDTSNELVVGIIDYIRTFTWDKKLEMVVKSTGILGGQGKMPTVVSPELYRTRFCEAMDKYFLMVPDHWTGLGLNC
- ASSAY: NanoBRET TE Intracellular Kinase Assay, K-8 (Promega) cell-based assay
- EXPERIMENTAL_SETUP: 2 hours, read-out: hPIKfyve BRET IC50
pIC50: −log10 of the molar value.

Please review the entries below; each comes with its answer.
COMPOUND: c1ccc(N2CCc3c(-c4ccncc4)nc(N4CCOCC4)nc32)cc1 [Compound 41]
EXPERIMENTAL_TARGET: PIKfyve (PIKFYVE-NanoLuc fusion in HEK293 cells) (Homo sapiens)
pIC50: 7.00 to 8.00
//
COMPOUND: CN1CCC(COc2nc(N3CCOCC3)nc3c2CCN3c2cccnc2)CC1 [Compound 111]
EXPERIMENTAL_TARGET: PIKfyve (PIKFYVE-NanoLuc fusion in HEK293 cells) (Homo sapiens)
pIC50: 5.00 to 6.00

Task item: Requested field: pIC50. Item: c1ccc(N2CCc3c(Oc4cccnc4)nc(N4CCOCC4)nc32)cc1 [Compound 22]
Reply: 6.00 to 7.00

Task item: Requested field: pIC50. Item: c1cncc(Oc2nc(N3CCOCC3)nc3c2CCN3c2cccnc2)c1 [Compound 24]
Reply: 5.00 to 6.00

Task item: Requested field: pIC50. Item: c1ccc(N2CCc3c(OCCc4ccccn4)nc(N4CCOCC4)nc32)cc1 [Compound 1]
Reply: 7.00 to 8.00

Task item: Requested field: pIC50. Item: c1ccc(N2CCc3c(OCc4cccnn4)nc(N4CCOCC4)nc32)cc1 [Compound 5]
Reply: 6.00 to 7.00

Task item: Requested field: pIC50. Item: COc1nc(N2CCOCC2)nc2c1CCN2c1ccccc1 [Compound 16]
Reply: 6.00 to 7.00

Task item: Requested field: pIC50. Item: OCC(O)COc1nc(N2CCOCC2)nc2c1CCN2c1ccccc1 (centres unmarked) [Compound 25]
Reply: 6.00 to 7.00

Task item: Requested field: pIC50. Item: N#Cc1ccc(N2CCc3c(OCc4cccnc4)nc(N4CCOCC4)nc32)cc1 [Compound 21]
Reply: 6.00 to 7.00

Task item: Requested field: pIC50. Item: c1ccc(N2CCc3c(OCc4cccnc4)nc(N4CCOCC4)nc32)cc1 [Compound 3]
Reply: 7.00 to 8.00

Task item: Requested field: pIC50. Item: c1cncc(N2CCc3c(OCCC4CCCO4)nc(N4CCOCC4)nc32)c1 (centres unmarked) [Compound 10]
Reply: 6.00 to 7.00
